Ref: PubChem BioAssay

- System: XIP peptide (Xip251-270) binding
- Experiment: small-molecule binders of XIP peptide, primary screen, biochemical, small-molecule microarray, fluorescence 635/667 nm, 0.1 µg/mL protein (AID 1182)
- Assay Setup: fluorescent protein binding, 635 nm, higher = more signal, called active from +8 up or from −8 down

Molecule	Tgt	composite z-score
O=C(NCc1ccccc1)[C@@]1(CCS(=O)(=O)c2ccccc2)N=C(c2ccc(OCCCO)cc2)O[C@H]1c1ccccc1	XIP peptide (Xip251-270) binding	0.429
CCCCCN1CC=CC23O[C@@H]4/C=C\CCCOC(=O)C4[C@H]2C(=O)N(CCCO)[C@@H]3C1=O (some centres undefined)	XIP peptide (Xip251-270) binding	1.75
C[C@@]1([C@@H](NC(=O)c2ccccc2)c2ccc(-c3ccccc3)cc2)C[C@H]1C1CCCCC1	XIP peptide (Xip251-270) binding	0.192
COC(=O)[C@@]1(Cc2ccc(F)cc2)[C@H]2c3cc(C(=O)N4CCCC4)n(Cc4ccc(C)o4)c3C[C@H]2CN1C(=O)c1ccccc1	XIP peptide (Xip251-270) binding	0.205
